tested on: RARb:RXRa (NR concentration 270 nM, RXRa partner concentration 90 nM); assay: PBM binding z-score (relative to random genomic background probes); higher = stronger binding; sequences stand for … in GC…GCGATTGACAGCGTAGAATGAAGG
// class assignment uses PBM binding z-score with these ranges: small value (below 0.9), mid value (0.9 to below 3), large value (3 or more)

Asked: Which PBM binding z-score category applies to `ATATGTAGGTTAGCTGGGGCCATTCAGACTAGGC` here?
Given back: mid value

Asked: Given `ACTGACGGGTCAACGAGGTTATAGCACGCGTATA` , name the class its PBM binding z-score places it in.
Given back: large value

====

system: RARg:RXRa (NR concentration 270 nM, RXRa partner concentration 90 nM); assay: PBM binding z-score (relative to random genomic background probes); higher = stronger binding; sequences stand for … in GC…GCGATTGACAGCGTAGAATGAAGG
Cut-off 2 on PBM binding z-score, inclusive. At or above means label 1; below means label 0.

Take a look at these entries with their results.
• CTCGAAAGGTCGGTTGAGATGAGTATACGGATAA = label 1
• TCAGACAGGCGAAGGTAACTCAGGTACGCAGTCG = label 0
• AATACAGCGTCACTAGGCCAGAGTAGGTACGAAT = label 0

Asked: Exam item: decide whether the reported PBM binding z-score for `TAGCCTAGGTCATGCCGGCCAGTATAGTGTCGGC` is at least 2.
Given back: label 1

Asked: Identify whether the reported PBM binding z-score of the following sequence is 2 or greater: `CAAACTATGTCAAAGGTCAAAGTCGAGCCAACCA`
Given back: label 1

Asked: For this sequence, is measured PBM binding z-score 2 or higher? `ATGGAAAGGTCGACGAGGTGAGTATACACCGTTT`
Given back: label 1

Asked: Assess whether reported PBM binding z-score for `TCATATAGGTAAAAGGTGAAACTCGGTGTGGTAA` sits at 2 or higher.
Given back: label 1

Asked: Textbook exercise: given the entry `TCTTGTAGATCAGCAGCTTAAGAAAGCTGGCCAA` , state whether its PBM binding z-score is greater than or equal to 2.
Given back: label 0

====

Reported values of PBM binding z-score for individual entries
system: PPARg DBDmut:RXRa IVT, anti-PPARg (DBD mutation: PPARg1 K132A/R137A, NR concentration 270 nM, RXRa partner concentration 90 nM); test: PBM binding z-score (relative to random genomic background probes); higher = stronger binding; sequences stand for … in GC…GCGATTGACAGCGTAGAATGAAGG

Consider the reported PBM binding z-score for these sequences:
- GCTGCTAGGTCACGTTGGTCAGCTAACGGGTACG: 0.1
- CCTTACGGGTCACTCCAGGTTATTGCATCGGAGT: 0.677
- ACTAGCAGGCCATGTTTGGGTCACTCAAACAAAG: -0.241

Asked: Note PBM binding z-score for the sequence shown: `CATACAGGGTGAGCTAGGCCAGAGTAGGGACGGC`
Given back: -0.282

====

test system: THRa:RXRa (NR concentration 90 nM, RXRa partner concentration 90 nM); experiment: PBM binding z-score (relative to random genomic background probes); higher = stronger binding; sequences stand for … in GC…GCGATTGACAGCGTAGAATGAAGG
Lab note: class by PBM binding z-score, see bottom bin = under 2, middle bin = from 2 up to 3, top bin = 3 and over

Answered examples (8):
- TGAATGAGGTTAAAGATGAGGGAACGTGGCGTCG: middle bin
- CCTAGCAGGCCAATCTGGGTCACTCGAGGCTTGA: top bin
- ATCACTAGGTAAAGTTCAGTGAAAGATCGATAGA: bottom bin
- ATTCAAAGTTCATCTAGGTAACGTAAGATATGCT: top bin
- GCTAGCAGGCTATTTGGGTCACTCAATGACGGGC: bottom bin
- AGAATGCGGTTACCAAAGATCAGGGAAACGCTTG: bottom bin
- AGTCAAAGTTCAGGATGAGGTAACGTAAAGCACG: top bin
- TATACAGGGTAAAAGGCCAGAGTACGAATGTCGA: bottom bin

Asked: Category of `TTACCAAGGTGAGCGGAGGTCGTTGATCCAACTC` :
Given back: top bin

Asked: Category of `TCATGTAGGTAAACAGGTGAAAGTCCGTAAGTTA` , please.
Given back: bottom bin

Asked: Category lookup for the sequence `ACTTGTTGGTCAGCTGAGGTCACACACAATTCGG`
Given back: top bin

Asked: Hi there! Could you help me figure out the category for `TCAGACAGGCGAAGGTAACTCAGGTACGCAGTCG` please?
Given back: bottom bin

Asked: Please classify: `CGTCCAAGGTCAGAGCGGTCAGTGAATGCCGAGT`
Given back: top bin

Asked: Hi, small favor: classify `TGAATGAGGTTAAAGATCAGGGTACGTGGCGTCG` by its PBM binding z-score when you get a moment.
Given back: middle bin

Asked: # bin label for `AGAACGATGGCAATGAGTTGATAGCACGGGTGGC`
Given back: bottom bin

Asked: Bin this entry: `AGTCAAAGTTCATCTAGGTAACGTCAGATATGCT`
Given back: top bin

Asked: # bin lookup: classify `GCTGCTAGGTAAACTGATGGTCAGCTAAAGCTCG` by its PBM binding z-score
Given back: bottom bin

Asked: Into which bin does this sequence go? `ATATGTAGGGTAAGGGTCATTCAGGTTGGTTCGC`
Given back: top bin

Asked: Hello team, could you let me know which band the following sequence falls into: `ATCGAAAGGTCGAAGGTGAGTAGACCCACCCGAA`
Given back: bottom bin

Asked: Which band does `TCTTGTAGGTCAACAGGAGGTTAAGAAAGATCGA` fall in?
Given back: top bin

Asked: Each sequence maps to one class by PBM binding z-score. Which class for `ATCTCTAGGTACGACTCAGTTCAGTGAAGAACGC` ?
Given back: bottom bin
